# Tested on: HCC-2998 colon
# procedure.summary: NCI-60 one-dose screen, 48 h (100 = growth as untreated, 0 = no growth, -100 = all killed)
# reported.conditions: 10 µM unless noted
About 83,000 compounds went through this panel and 20% of them were active in at least one assay; those are over-represented in the sample as a whole.
A collection of compounds and their measured growth
Write down the numeric answer in % and omit the unit.

compound	growth / %
CC1CCCN(CCCCCOc2ccc3oc4ccccc4c(=O)c3c2)C1 (stereo unspecified)	85.3

// lookup growth for CNS(=O)(=O)c1cccc(-c2ccc3c4c(n(C)c(=O)c3c2)-c2ccccc2C4=O)c1
90.6

Please give the result for CC(C)NS(=O)(=O)c1cccc(-c2ccc3c(=O)n(CCCN)c4c(c3c2)C(=O)c2ccccc2-4)c1 too.
105

Please give the result for NC(=O)C(O)(c1ccccc1)c1ccccc1 too.
98.5

---

# Test system: HCT-15 colon
# procedure.summary: NCI-60 one-dose screen, 48 h
# reported.conditions: 10 µM unless noted
About 83,000 compounds went through this panel and 20% of them were active in at least one assay; those are over-represented in the sample as a whole. Calls of active or inactive are those of the source. Rule for the calls: active = growth percent below 10; inactive = the rest.
Please reply with one of these outcomes: T for active, F for inactive

compound	group.label
NC(N)=NC(N)=Nc1cc2ccccc2c2ccccc12	F
COc1ccc(-c2cc(-c3nnc(SCC(=O)Nc4ccc(/C(C)=N\O)cc4)o3)c3ccccc3n2)cc1	F
C=C1C(=O)O[C@H]2[C@H]1CC/C(COC(=O)NCC(=O)Nc1ccc(OC)c(C(N)=O)c1O)=C\CC[C@@]1(C)O[C@@H]21	F
COc1ccc2[nH]c(-c3ccccc3)c(C=C(C#N)C#N)c2c1	F
CC1CCN(CCCCCOc2ccc3oc4cc(Cl)ccc4c(=O)c3c2)CC1	T

Please state the recorded outcome for this compound: C=CCn1c(SCC(=O)Nc2ccc(C(=O)/C=C/c3ccc(Cl)cc3)cc2)nnc1-c1cc(OC)c(OC)c(OC)c1
F

Please give the result for O=CN1N=C(c2ccc(Cl)cc2)CC1c1cccc(Nc2ccnc3cc(C(F)(F)F)ccc23)c1 (stereo not given) too.
F

---

A collection of compounds and their measured growth
# Tested on: A549/ATCC NSCLC
# procedure.summary: NCI-60 one-dose screen, 48 h (100 = growth as untreated, 0 = no growth, -100 = all killed)
# reported.conditions: 10 µM unless noted
Compounds without any hit were thinned out: in the full panel of roughly 83,000, 20% have a hit. The source made the active and inactive calls. How the source made its calls: active means growth percent below 10; inactive means the rest.

Worked set:
compound	growth
COc1cc(/C=C/C(=O)/C=C/c2cc3ccc(Cl)cc3[nH]c2=O)ccc1O	79.8% (inactive)
NC(=O)C(O)(c1ccccc1)c1ccccc1	91% (inactive)
[2H]c1cc2c(c([2H])c1F)/C(=C/c1[nH]c(C)c(C(=O)NCCN(CC)CC)c1C)C(=O)N2	56.5% (inactive)
COc1ccc2c(c1)Oc1nc(N)c(C#N)c(N)c1C2Sc1ccc(O)cc1 (stereo not given)	98.4% (inactive)

For the next question, use this compound.
// lookup growth for CCN1CCN(Cc2ccc(NC(=O)c3cccc(C#Cc4cccc5[nH]nc(N)c45)c3)cc2C(F)(F)F)CC1
-91.2% (active)

---

# System: KM12 colon
# procedure.summary: NCI-60 one-dose screen, 48 h (100 = growth as untreated, 0 = no growth, -100 = all killed)
# reported.conditions: 10 µM unless noted
This is part of a sample that, as a whole, favours compounds with a hit. Of some 83,000 tested, about 20% had one in any assay.
Could you label it Satisfied if measured growth is 50% or higher, and Not satisfied otherwise?

Sample answers from the record:
molecule	group.label
Cn1nc(C(F)(F)F)c(-c2cc(C(F)(F)F)cc(C(F)(F)F)c2)c1-c1ccc(OCc2ccc(Cl)cc2)cc1O	Not satisfied
Cc1cc(Cl)cc(CN(Cc2ccccc2)Cc2c(O)ccc3ccccc23)c1O	Satisfied
COc1ccc2nc(-c3ccc(OC)c(OC)c3)cc(-c3nnc(SCC(=O)Nc4ccc(/C(C)=N\O)cc4)n3-c3ccccc3)c2c1	Satisfied
Nc1ccc2c(c1)C(=O)C(=O)c1c-2nc2ccccn12	Not satisfied
Nc1n[nH]c2cccc(C#Cc3cccc(NC(=O)c4cc(N5CCOCC5)cc(C(F)(F)F)c4)c3)c12	Satisfied

Reported growth reaches at least 50% for COc1cc(C2=NN(C=O)C(c3cccc(Nc4ccnc5cc(C(F)(F)F)ccc45)c3)C2)cc(OC)c1OC (stereo not given) ?
Satisfied

Please give the result for O=C(CCCCCCCCC(=O)Nc1cccc(C2=NCCN2)c1)Nc1cccc(C2=NCCN2)c1 too.
Satisfied

Please give the result for COc1ccc2oc(=O)cc(-c3c(C#N)c(N)n4nc(N)c(C#N)c4c3C#N)c2c1 too.
Satisfied

Please give the result for CC(C)(C)c1ccc(O)c(Cc2cc(C(C)(C)C)ccc2O)c1 too.
Satisfied

---

# System: SF-295 CNS
# procedure.summary: NCI-60 one-dose screen, 48 h
# reported.conditions: 10 µM unless noted
# Description: Cells are grown in 96 well plates and exposed to the test compound for 48 hours. Compounds are tested at a single concentration, which is 10^-5 M for most compounds. The reported endpoint is percent growth (GI% or GIPRCNT), where numbers from 0 - 100% represent growth inhibition, and numbers from -100% - 0 represent cell death. For example, a value of 40 represents 60% growth inhibition. A value of 0 means no net growth occurred over the course of the experiment. […]
Compounds without any hit were thinned out: in the full panel of roughly 83,000, 20% have a hit. The source made the active and inactive calls. Rule for the calls: active = growth percent below 10; inactive = the rest.
Please reply with one of these outcomes: yes (1) for active, no (0) for inactive

compound	group.label
C/C(=C\c1cnc(C)s1)[C@@H]1C[C@@H]2O[C@@H]2CCC[C@H](C)[C@H](O)[C@@H](C)C(=O)C(C)(C)[C@@H](O)CC(=O)O1	yes (1)
O=C(CCc1nnco1)c1nc2ccc([N+](=O)[O-])cc2[nH]1	no (0)

Please state the recorded outcome for this compound: CN1CCN(S(=O)(=O)O[C@@H]2C(=O)N(c3cc4c5ccccc5ccc4c4ccccc34)[C@H]2c2ccc(F)cn2)CC1
no (0)

Please give the result for C=C1C(=O)O[C@H]2[C@H]1CC/C(COC(=O)NCC(=O)Nc1ccc(OC)c(C(N)=O)c1O)=C\CC[C@@]1(C)O[C@@H]21 too.
no (0)

Please give the result for O=c1nc(-c2ccccc2)c2cc(-c3ccc(N4CCCC4)nc3)ccc2[nH]1 too.
no (0)

Please give the result for C=CCn1c(SCC(=O)Nc2ccc(C(=O)/C=C/c3cc(OC)c(OC)c(OC)c3)cc2)nnc1-c1ccc(Cl)cc1 too.
no (0)

Please give the result for O=C1Nc2ccc(Cl)cc2/C1=N/c1nc(-c2ccc(F)cc2)cs1 too.
no (0)

Please give the result for C=C1C(=O)O[C@H]2[C@H]1CC/C(C=Nc1c(N)cc(C(F)(F)F)cc1Br)=C\CC[C@@]1(C)O[C@@H]21 too.
no (0)

Please give the result for C=C(C)[C@@H]1CC[C@]2(C(=O)OCCOCCOCC[P+](c3ccccc3)(c3ccccc3)c3ccccc3)CC[C@]3(C)[C@H](CC[C@@H]4[C@@]5(C)CC[C@H](C)C(C)(C)[C@@H]5CC[C@]43C)[C@@H]12 too.
yes (1)

---

# Tested on: IGROV1 ovarian
# procedure.summary: NCI-60 one-dose screen, 48 h
# reported.conditions: 10 µM unless noted
# Method: Growth inhibition of the IGROV1 human tumor cell line is measured as a screen for anti-cancer activity. Cells are grown in 96 well plates and exposed to the test compound for 48 hours. Compounds are tested at a single concentration, which is 10^-5 M for most compounds. The reported endpoint is percent growth (GI% or GIPRCNT), where numbers from 0 - 100% represent growth inhibition, and numbers from -100% - 0 represent cell death. For example, a value of 40 represents 60% growth inhibition. […]
About 83,000 compounds went through this panel and 20% of them were active in at least one assay; those are over-represented in the sample as a whole. Calls of active or inactive are those of the source. Rule for the calls: active = growth percent below 10; inactive = the rest.
Please reply with one of these outcomes: yes (active), no (inactive)

molecule	target.under.test	group.label
CCN(CC)c1ccc2c(c1)Oc1nc(N)c(C#N)c(N)c1C2Sc1ccc(OC)cc1 (configuration not stated)	IGROV1 ovarian	yes
C/C(=N/Nc1nc2ccccc2n1C)c1ccccn1	IGROV1 ovarian	no
Cc1nccc2c3ccc(OCc4cn(-c5ccccc5)nn4)cc3n(CCCc3ccccc3)c12	IGROV1 ovarian	no
CN(C)[C@@H]1C(=O)C(C(N)=O)=C(O)[C@@]2(O)C(=O)C3=C(O)c4c(O)cc(CN5CCc6ccccc6C5)c(Cl)c4C[C@H]3C[C@@H]12	IGROV1 ovarian	yes
O=c1[nH]nc(-c2ccc(Br)cc2)c2sc(NC(=S)Nc3ccc(Cl)cc3)nc12	IGROV1 ovarian	no
COc1ccc(Cc2nc(C#N)c(N3CCN(c4ccc(F)cc4)CC3)o2)cc1	IGROV1 ovarian	no
C/C(=C\c1cnc(C)s1)[C@@H]1C[C@@H]2O[C@@H]2CCC[C@H](C)[C@H](O)[C@@H](C)C(=O)C(C)(C)[C@@H](O)CC(=O)O1	IGROV1 ovarian	no
COC(=O)c1ccc(NC(=O)CSc2nc(-c3ccc(F)cc3)nc3ccccc23)cc1	IGROV1 ovarian	no
OCCNc1nc(NCCO)nc(Nc2ccc(C3=NN(c4cc(Cl)cc(Cl)c4)C(c4ccccc4)C3)cc2)n1 (configuration not stated)	IGROV1 ovarian	no
C=C1C(=O)O[C@H]2[C@H]1CC/C(COC(=O)CCC(=O)OC/C1=C/CC[C@@]3(C)O[C@H]3[C@H]3OC(=O)C(=C)[C@@H]3CC1)=C\CC[C@@]1(C)O[C@@H]21	IGROV1 ovarian	no

Please state the recorded outcome for this molecule: CCC1=C[C@H]2CN(CCc3c([nH]c4ccccc34)[C@@](C(=O)OC)(c3cc4c(cc3OC)N(C)[C@H]3[C@@](O)(C(=O)OC)[C@H](OC(C)=O)[C@]5(CC)[C@@H]6C[C@@H]6CN6CC[C@]43[C@@H]65)C2)C1
no

Please give the result for [2H]c1cc2c(c([2H])c1F)/C(=C/c1[nH]c(C)c(C(=O)NCCN(CC)CC)c1C)C(=O)N2 too.
no

Please give the result for COc1cc(-c2csc(NC(=O)Nc3ccc(C(F)(F)F)cc3)n2)cc(OC)c1OC too.
no

Please give the result for Nc1c(C(=O)Nc2ccccc2)sc2nc3c(cc12)CN(C(=O)OCc1ccccc1)CC3 too.
no
